Reference for the values: the supplement of paper PMC10126150

Test system: ATP;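 also: ATP exposure 15 min at 22 °C before imaging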
Experiment: switch fluorescence ratio, 500 uM ATP over buffer (Cy3 cluster intensity, sum of 5 cycles each) (fold (ratio)); higher = stronger signal-on switching upon ATP binding; sequences stand for … in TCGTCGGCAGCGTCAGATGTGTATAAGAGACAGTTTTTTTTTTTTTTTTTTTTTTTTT…TC
Settings: aptamer strand: ATP DNA aptamer (quencher-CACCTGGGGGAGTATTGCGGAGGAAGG + anchor), 100 nM annealed; ATP concentration: 500 uM
Below: a set of entries, each annotated with reported switch fluorescence ratio.
Give your answer as a number; write no unit.

Could you please provide reported switch fluorescence ratio for TTAGTTTGTT ? Thanks!
0.981

State its switch fluorescence ratio: TGAAAGGCTT
1.06

Please report the measured switch fluorescence ratio for AGTCCGATGC
1.51

Tell us which switch fluorescence ratio value is on record for CGGGTCGTGC
1.03

Tell me measured switch fluorescence ratio for GATCATAGTT please.
0.995

Continuing:
Dear colleague, please send me the reported switch fluorescence ratio for CTTTTAGGTG when you can.
1.11

Let me know recorded switch fluorescence ratio for TATATGATTA , thanks.
0.973
